# METHOD: Determination of the microsomal half-life / microsomal clearance (human)
# Assay type: in vitro ADME
# REPORTED CONDITIONS: pH 7.4; human liver microsomes, 0.5 μM test substance, 0.25 mg microsomal protein/ml; read-out: Human Mikrosomal Clearance
Task for the reader: assign each of the following compounds its reported microsomal CLint at 0.5 μM.

stdin: What does the record list as microsomal CLint at 0.5 μM for CCOc1ncccc1C1(NC(=O)N2CCN(C3CCN(C)CC3)CC2)C(=O)N(S(=O)(=O)c2ccc(OC)cc2)c2ccc(C#N)cc21 (racemic) ?
stdout: < 60 µL/min/mg

stdin: What does the record list as microsomal CLint at 0.5 μM for CCOc1ncccc1C1(NC(=O)N2CCN(C3CCN(CC)CC3)CC2)C(=O)N(S(=O)(=O)c2ccc(OC)cc2OC)c2ccc(C#N)cc21.O=C(O)C(F)(F)F (single isomer, unassigned) [Example 7B, trifluoroacetate] ?
stdout: < 60 µL/min/mg

stdin: What does the record list as microsomal CLint at 0.5 μM for CCOc1ncccc1C1(NC(=O)N2CCC(N3CCN(CC)CC3)CC2)C(=O)N(S(=O)(=O)c2ccc(OC)cc2OC)c2ccc(C#N)cc21 (racemic) [Example 37] ?
stdout: 60 to 120 µL/min/mg

stdin: What does the record list as microsomal CLint at 0.5 μM for CCOc1ncccc1[C@]1(NC(=O)N2CCN(C3CCN(C)CC3)CC2)C(=O)N(S(=O)(=O)c2ccc(OC)cc2OC)c2ccc(C#N)cc21 ?
stdout: < 60 µL/min/mg

stdin: What does the record list as microsomal CLint at 0.5 μM for CCOc1ncccc1C1(NC(=O)N2CCC(N3CCNCC3)CC2)C(=O)N(S(=O)(=O)c2ccc(OC)cc2OC)c2ccc(C#N)cc21 (racemic) ?
stdout: 60 to 120 µL/min/mg

stdin: What does the record list as microsomal CLint at 0.5 μM for CCOc1ncccc1C1(NC(=O)N2CCN(C3CCN(C)CC3)CC2)C(=O)N(S(=O)(=O)c2ccc(OC)cc2OC)c2ccc(C#N)cc21 (racemic) ?
stdout: < 60 µL/min/mg

stdin: What does the record list as microsomal CLint at 0.5 μM for CCOc1ncccc1C1(NC(=O)N2CCC(N3CCN(CC)CC3)CC2)C(=O)N(S(=O)(=O)c2ccccc2)c2ccc(C#N)cc21 (single isomer, unassigned) [Example 40B] ?
stdout: 60 to 120 µL/min/mg

stdin: What does the record list as microsomal CLint at 0.5 μM for CCOc1ncccc1C1(NC(=O)N2CCC(N3CCN(C)CC3)CC2)C(=O)N(S(=O)(=O)c2ccc(OC)cc2OC)c2ccc(C#N)cc21 (single isomer, unassigned) [Example 31B] ?
stdout: < 60 µL/min/mg

stdin: What does the record list as microsomal CLint at 0.5 μM for CCOc1ncccc1C1(NC(=O)N2CCC(C3CCNCC3)CC2)C(=O)N(S(=O)(=O)c2ccc(OC)cc2OC)c2ccc(C#N)cc21.O=C(O)C(F)(F)F.O=C(O)C(F)(F)F (racemic) [Example 85, bis(trifluoroacetate)] ?
stdout: 60 to 120 µL/min/mg
